The origin of these recorded values is patent US7683061B2.

Test system: peripheral blood mononuclear leukocytes (PBML)
experiment: PBML RNA synthesis (uridine)
Type: cell-based, human
test-parameters: Homo sapiens, Leukocyte, PWM stimulated PBML
parameter: pIC50
Worth noting: pIC50 values are minus log10 of concentrations stated in mol/L.

Reference set, count: 2
compound	pIC50
Nc1ccc(CCNc2nc(NCCNc3nc(NCCc4ccc(N)cc4)nc(Nc4cccc(N)c4)n3)nc(Nc3cccc(N)c3)n2)cc1 [Compound 7]	5.75
Nc1ccc(CCNc2nc(Nc3ccc(CCNc4nc(NCCO)nc(Nc5cccc(N)c5)n4)cc3)nc(Nc3cccc(N)c3)n2)cc1 [Compound 19a]	6.40

Field: next compound
Q: // pIC50 lookup, key: Oc1ccc(CCNc2nc(NCCNc3nc(NCCc4ccc(O)cc4)nc(Nc4ccccc4)n3)nc(Nc3ccccc3)n2)cc1 [Compound 1]
Result: 6.18

* * *

assayed-system: TNFα / p55 TNFα receptor (CD120a) (Homo sapiens, UniProt P01375)
Sequence (P01375 77-233 limits assumed): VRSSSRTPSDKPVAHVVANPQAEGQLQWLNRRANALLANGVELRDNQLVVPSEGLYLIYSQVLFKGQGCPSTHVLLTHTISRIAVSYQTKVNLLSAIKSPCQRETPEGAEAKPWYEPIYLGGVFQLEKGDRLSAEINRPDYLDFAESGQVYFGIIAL
experiment: Binding ELISA: sTNF-R1 binding to plastic coated TNF-α
test-parameters: 10^−4 M
parameter: inhibition at 100 µM (%)
Please reply with the bare figure in % and do not write the unit itself.

compound	unit-of-measurement	inhibition at 100 µM
Oc1ccc(CCNc2nc(NCCNc3nc(NCCc4ccc(O)cc4)nc(Nc4ccccc4)n3)nc(Nc3ccccc3)n2)cc1 [Compound 1]	%	2.7

Q: // inhibition at 100 µM lookup, key: Cc1ccccc1Nc1nc(NCCNc2nc(NCCc3ccc(O)cc3)nc(Nc3ccccc3C)n2)nc(NCCc2ccc(O)cc2)n1 [Compound 5]
Result: 1.54

Q: // inhibition at 100 µM lookup, key: Oc1ccc(CCNc2nc(NCCCNc3nc(NCCc4ccc(O)cc4)nc(Nc4ccccc4)n3)nc(Nc3ccccc3)n2)cc1 [Compound 25]
Result: 5.65

Q: // inhibition at 100 µM lookup, key: NCCc1ccc(Nc2nc(NCCNc3nc(Nc4ccccc4)nc(Nc4ccc(CCN)cc4)n3)nc(Nc3ccccc3)n2)cc1 [Compound 4]
Result: 2.19

* * *

assayed-system: Fc portion of human IgG (binding of protein A to human IgG)
Construct: fused on or other part: Horseradish peroxidase chemically conjugated to the IgG (HRP-IgG)
experiment: Competitive protein A binding ELISA
test-parameters: Table 1; PBS-20% DMSO; read-out: IC50 (μM): Assay in PBS-20% DMSO
Experimental: As described above, this assay evaluates the ability of the exemplified compounds to mimic protein A. Such compounds can bind to the Fc portion of human IgG as ascertained by the inhibition of binding of protein A to human IgG. […] Bound HRP-IgG was detected by incubation with 100 μL of 2,2′-Azino-di[3-ethylbenzothiazoline sulfonate]diammonium salt crystals (ABTS) solution for 20 min in the dark at room temperature. The plate was then read at 405 nm on a EL 800, universal Microplate reader (Bio-Tek). […]
Entries and their IC50
Please reply with the bare figure in µM and do not write the unit itself.

Reference set, count: 5
chemical-structure	assayed-system	unit-of-measurement	IC50
Nc1cccc(Nc2nc(N)nc(NCc3ccc(CNc4nc(N)nc(Nc5cccc(N)c5)n4)cc3)n2)c1	Fc portion of human IgG (binding of protein A to human IgG)	µM	0.02
O=C(O)c1ccccc1Nc1nc(NCCNc2nc(NCCc3ccc(O)cc3)nc(Nc3ccccc3C(=O)O)n2)nc(NCCc2ccc(O)cc2)n1	Fc portion of human IgG (binding of protein A to human IgG)	µM	50
Nc1ccc(CNc2nc(NCc3ccc(CNc4nc(NCc5ccc(N)cc5)nc(Nc5cccc(N)c5)n4)cc3)nc(Nc3cccc(N)c3)n2)cc1	Fc portion of human IgG (binding of protein A to human IgG)	µM	0.05
Nc1cccc(Nc2nc(NCCO)nc(Nc3cccc(CNc4nc(Nc5cccc(N)c5)nc(Nc5cccc(N)c5)n4)c3)n2)c1	Fc portion of human IgG (binding of protein A to human IgG)	µM	0.05
Oc1ccc(CCNc2nc(Nc3ccccc3)nc(N[C@H](COc3nc(NCCc4ccc(O)cc4)nc(Nc4ccccc4)n3)c3ccccc3)n2)cc1	Fc portion of human IgG (binding of protein A to human IgG)	µM	43

Field: next compound
Q: // IC50 lookup, key: `Nc1cccc(Nc2nc(N)nc(Nc3cccc(Nc4nc(NCCO)nc(Nc5cccc(N)c5)n4)c3)n2)c1`
Result: 0.8

* * *

Entries and their inhibition at 40 µM
Tested on: TNFα-induced apoptosis, WEHI-13VAR cells
experiment: TNFα induced apoptosis in WEHI-13VAR cells (MTT)
Type: cell-based, murine
test-parameters: Mus musculus; 4 × 10^−5M
Please reply with the bare figure in % and do not write the unit itself.

Reference set, count: 9
chemical-structure	unit-of-measurement	inhibition at 40 µM
NCCc1ccc(Nc2nc(NCCNc3nc(Nc4ccccc4)nc(Nc4ccc(CCN)cc4)n3)nc(Nc3ccccc3)n2)cc1	%	44
CN(C)CCCC(=O)Oc1ccc(CCNc2nc(NCCNc3nc(NCCc4ccc(OC(=O)CCCN(C)C)cc4)nc(Nc4ccccc4)n3)nc(Nc3ccccc3)n2)cc1	%	-30
COC(=O)c1ccccc1Nc1nc(NCCNc2nc(N)nc(NCCc3ccc(O)cc3)n2)nc(NCCc2ccc(O)cc2)n1	%	33.9
COC(=O)c1ccccc1Nc1nc(NCCNc2nc(NCCc3ccc(O)cc3)nc(Nc3ccccc3C(=O)OC)n2)nc(NCCc2ccc(O)cc2)n1	%	48.3
Oc1ccc(CCNc2nc(NCCCNc3nc(NCCc4ccc(O)cc4)nc(Nc4ccccc4)n3)nc(Nc3ccccc3)n2)cc1	%	-17.8
Nc1cccc(CNc2nc(Nc3ccc(CNc4nc(N)nc(Nc5cccc(N)c5)n4)cc3)nc(Nc3cccc(N)c3)n2)c1	%	32.9
Nc1cccc(Nc2nc(NCCO)nc(Nc3ccc(CNc4nc(Nc5cccc(N)c5)nc(Nc5cccc(N)c5)n4)cc3)n2)c1	%	30.4
Oc1ccc(CCNc2nc(NCCNc3nc(NCCc4ccc(O)cc4)nc(Nc4ccccc4)n3)nc(Nc3ccccc3)n2)cc1	%	-3.8
OCCNc1nc(NCC2CCN(c3nc(NCCO)nc(Nc4ccccc4)n3)CC2)nc(Nc2ccccc2)n1	%	-11.5

Q: API: value(readout= inhibition at 40 µM, system= TNFα-induced apoptosis, WEHI-13VAR cells, query= `Cc1ccccc1Nc1nc(NCCNc2nc(NCCc3ccc(O)cc3)nc(Nc3ccccc3C)n2)nc(NCCc2ccc(O)cc2)n1` )
Result: 35.4

* * *

assayed-system: Fc portion of human IgG (binding of protein A to human IgG)
Construct: fused on or other part: Horseradish peroxidase chemically conjugated to the IgG (HRP-IgG)
experiment: Competitive protein A binding ELISA
test-parameters: Table 1; PBS-20% DMSO; read-out: IC50 (μM): Assay in PBS-20% DMSO
Entries and their IC50
Please reply with the bare figure in µM and do not write the unit itself.

compound	unit-of-measurement	IC50
Nc1ccc(CCNc2nc(Nc3ccccc3)nc(N3CCN(c4nc(NCCO)nc(Nc5ccccc5)n4)CC3)n2)cc1 [Compound 33]	µM	18

Q: // IC50 lookup, key: Nc1ccc(CNc2nc(NCCNc3nc(NCc4ccc(N)cc4)nc(Nc4ccccc4)n3)nc(Nc3ccccc3)n2)cc1 [Compound 6]
Result: 0.4

Q: // IC50 lookup, key: Nc1ccc(CCNc2nc(Nc3ccccc3)nc(Nc3ccc(CCNc4nc(NCCO)nc(Nc5ccccc5)n4)cc3)n2)cc1 [Compound 17]
Result: 12

Q: // IC50 lookup, key: Nc1ccc(CCNc2nc(NCCNc3nc(NCCc4ccc(N)cc4)nc(Nc4cccc(N)c4)n3)nc(Nc3cccc(N)c3)n2)cc1 [Compound 7]
Result: 0.02

Q: // IC50 lookup, key: Oc1ccc(CCNc2nc(NCCNc3nc(NCCc4ccc(O)cc4)nc(Nc4ccccc4)n3)nc(Nc3ccccc3)n2)cc1 [Compound 1]
Result: 50

Q: // IC50 lookup, key: N=C(N)NCCNc1nc(NCCc2ccc(Oc3nc(NCCc4ccc(O)cc4)nc(Nc4ccccc4)n3)cc2)nc(Nc2ccccc2)n1 [Compound 14]
Result: 63

Q: // IC50 lookup, key: Nc1cccc(Nc2nc(NCCO)nc(Nc3ccc(Nc4nc(NCCO)nc(Nc5cccc(N)c5)n4)cc3)n2)c1 [Compound 47]
Result: 0.2

* * *

assayed-system: Fc portion of human IgG (binding of protein A to human IgG)
Construct: fused on or other part: Horseradish peroxidase chemically conjugated to the IgG (HRP-IgG)
experiment: Competitive protein A binding ELISA
test-parameters: Table 1; PBS; read-out: IC50 (μM): Assay in PBS
parameter: IC50 (µM)
Please reply with the bare figure in µM and do not write the unit itself.

Reference set, count: 3
compound	parameter	measurement
Cc1ccc(Nc2nc(NCCc3ccc(N)cc3)nc(Nc3ccccc3)n2)cc1CNc1nc(NCCO)nc(Nc2ccccc2)n1	IC50	23
Nc1ccc(CCNc2nc(Nc3ccccc3)nc(Nc3cccc(CNc4nc(NCCO)nc(Nc5ccccc5)n4)c3)n2)cc1	IC50	23
NCCc1ccc(Nc2nc(NCCNc3nc(Nc4ccccc4)nc(Nc4ccc(CCN)cc4)n3)nc(Nc3ccccc3)n2)cc1	IC50	44

Q: API: value(readout= IC50, system= Fc portion of human IgG (binding of protein A to human IgG), query= `Nc1ccc(CCNc2nc(Nc3ccccc3)nc(Nc3ccc(CCNc4nc(NCCO)nc(Nc5ccccc5)n4)cc3)n2)cc1` )
Result: 53

Q: API: value(readout= IC50, system= Fc portion of human IgG (binding of protein A to human IgG), query= `Nc1ccc(CCNc2nc(NCC3CCN(c4nc(NCCc5ccc(N)cc5)nc(Nc5ccccc5)n4)CC3)nc(Nc3ccccc3)n2)cc1` )
Result: 33
